Tested on: 292921-168-R-J2-PDC complex spheroid growth
Experiment: Anticancer human tumor 292921-168-R-J2-PDC patient-derived pancreatic carcinoma cell line growth inhibition [AhR]
Settings: second compound 1 µM; first compound 1 µM; stronger effect = lower value
Please note: viability, T/C exactly at 40% is 0.0. Only values below 40% get 1.0.

{"COMPOUND": "NS(=O)(=O)OCC1CC(n2ccc3c(NC4CCc5ccccc54)ncnc32)CC1O (configuration not stated) + Cc1cncc(-c2nc(NCCc3c[nH]c4ccccc34)c3ncn(C(C)C)c3n2)c1", "LABEL VALUE": 1.0}
{"COMPOUND": "O=C(c1cc(Cc2n[nH]c(=O)c3ccccc23)ccc1F)N1CCN(C(=O)C2CC2)CC1 + Cc1ccccc1N=Nc1ccc(NC(=O)c2ccnn2C)c(C)c1", "LABEL VALUE": 0.0}
{"COMPOUND": "Nc1ccccc1NC(=O)c1ccc(CNC(=O)OCc2cccnc2)cc1 + Cc1cncc(-c2nc(NCCc3c[nH]c4ccccc34)c3ncn(C(C)C)c3n2)c1", "LABEL VALUE": 1.0}
{"COMPOUND": "Nc1ncn(C2CC(O)C(CO)O2)c(=O)n1 (configuration not stated) + Cc1cncc(-c2nc(NCCc3c[nH]c4ccccc34)c3ncn(C(C)C)c3n2)c1", "LABEL VALUE": 0.0}
{"COMPOUND": "CC1COCCN1c1cc(-c2ccnn2C)c2ccnc(-c3ccn[nH]3)c2n1 (configuration not stated) + Cc1cncc(-c2nc(NCCc3c[nH]c4ccccc34)c3ncn(C(C)C)c3n2)c1", "LABEL VALUE": 1.0}
{"COMPOUND": "COc1cc(C2c3cc4c(cc3C(OC3OC5COC(C)OC5C(O)C3O)C3COC(=O)C23)OCO4)cc(OC)c1O (configuration not stated) + Cc1cncc(-c2nc(NCCc3c[nH]c4ccccc34)c3ncn(C(C)C)c3n2)c1", "LABEL VALUE": 1.0}
{"COMPOUND": "CC1(C)CCC(CN2CCN(c3ccc(C(=O)NS(=O)(=O)c4ccc(NCC5CCOCC5)c([N+](=O)[O-])c4)c(Oc4cnc5[nH]ccc5c4)c3)CC2)=C(c2ccc(Cl)cc2)C1 + Cc1cncc(-c2nc(NCCc3c[nH]c4ccccc34)c3ncn(C(C)C)c3n2)c1", "LABEL VALUE": 0.0}
{"COMPOUND": "Nc1ccccc1NC(=O)c1ccc(CNC(=O)OCc2cccnc2)cc1 + CC(CO)NC(=O)c1cc(-c2ccc(Cl)cc2)nn(-c2cnn(C)c2)c1=O", "LABEL VALUE": 1.0}
{"COMPOUND": "CC1COCCN1c1cc(-c2ccnn2C)c2ccnc(-c3ccn[nH]3)c2n1 (configuration not stated) + CC(CO)NC(=O)c1cc(-c2ccc(Cl)cc2)nn(-c2cnn(C)c2)c1=O", "LABEL VALUE": 1.0}
{"COMPOUND": "Nc1ccn(C2OC(CO)C(O)C2(F)F)c(=O)n1 (configuration not stated) + Cc1cncc(-c2nc(NCCc3c[nH]c4ccccc34)c3ncn(C(C)C)c3n2)c1", "LABEL VALUE": 1.0}
{"COMPOUND": "CC(C)c1c(-c2ccccc2)nc2c(C#N)c[nH]n2c1=O + CC(CO)NC(=O)c1cc(-c2ccc(Cl)cc2)nn(-c2cnn(C)c2)c1=O", "LABEL VALUE": 0.0}
{"COMPOUND": "Nc1ccn(C2OC(CO)C(O)C2(F)F)c(=O)n1 (configuration not stated) + CC(CO)NC(=O)c1cc(-c2ccc(Cl)cc2)nn(-c2cnn(C)c2)c1=O", "LABEL VALUE": 1.0}

* * *

Test system: 292921-168-R-J2-PDC complex spheroid growth
Assay: Anticancer human tumor 292921-168-R-J2-PDC cell line growth inhibition [AhR];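 note: spheroids exposed to compounds for seven days after three days of growth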
Details: curve of first compound; second compound 1 µM
Excerpt: Multicellular complex tumor spheroid response to aryl hydrocarbon receptor antagonists in combination with a variety of drugs and investigational agents in selected tumor cell lines […] Compounds. […] If the clinical Cmax for an agent had not been determined, the highest concentration tested was 10 microM (Table 1). […]
pIC50: −log10 of the molar value.
Measured pIC50, listed per entry.

{"MOLECULE": "Nc1ncn(C2CC(O)C(CO)S2)c(=O)n1 (stereo not given) + Cc1cncc(-c2nc(NCCc3c[nH]c4ccccc34)c3ncn(C(C)C)c3n2)c1", "BOUND TYPE": "<", "pIC50": 6.52}
{"MOLECULE": "CC1(C)CCC(CN2CCN(c3ccc(C(=O)NS(=O)(=O)c4ccc(NCC5CCOCC5)c([N+](=O)[O-])c4)c(Oc4cnc5[nH]ccc5c4)c3)CC2)=C(c2ccc(Cl)cc2)C1 + Cc1ccccc1N=Nc1ccc(NC(=O)c2ccnn2C)c(C)c1", "BOUND TYPE": "=", "pIC50": 5.22}
{"MOLECULE": "CC[C@@]1(O)C(=O)OCc2c1cc1n(c2=O)Cc2cc3c(CN(C)C)c(O)ccc3nc2-1 + Cc1ccccc1N=Nc1ccc(NC(=O)c2ccnn2C)c(C)c1", "BOUND TYPE": "=", "pIC50": 7.73}
{"MOLECULE": "CCN(c1cc(-c2ccc(CN3CCOCC3)cc2)cc(C(=O)NCc2c(C)cc(C)[nH]c2=O)c1C)C1CCOCC1 + CC(CO)NC(=O)c1cc(-c2ccc(Cl)cc2)nn(-c2cnn(C)c2)c1=O", "BOUND TYPE": "<", "pIC50": 5.52}
{"MOLECULE": "NS(=O)(=O)OCC1CC(n2ccc3c(NC4CCc5ccccc54)ncnc32)CC1O (stereo not given) + Cc1cncc(-c2nc(NCCc3c[nH]c4ccccc34)c3ncn(C(C)C)c3n2)c1", "BOUND TYPE": "=", "pIC50": 6.64}

The reported measurements were obtained from PubChem BioAssay AID1918994.
